Taken from patent US4971968A.

test: Acute toxicity (LD50) for intravenous and oral administration in male mice; conditions: mouse, in vivo, iv
result_type: LD50 (mg/kg)
Please state the figure in mg/kg; there is no need to write the unit.

Query :: Data request, read-out LD50, for O=C1CCC(c2ccc(Nc3ccncc3)cc2)=NN1
Result :: 97

* * *

System: left atrium of guinea pig
Experiment: Effect on contraction of an isolated left atrium of the guinea pig
Details: Cavia porcellus; 10^-5 g/ml; read-out: Contraction of left atrium of guinea pig, increase
Method: 2. Effect on contraction of an isolated left atrium of the guinea pig A left atrium was isolated from a male guinea pig with 200-300 g of body weight soon after striking on the back of its head. The mitral orifice was fixed to the bottom of an organ bath filled with 30 ml of Krebs-Henseleit solution maintained at 35° C. […] Isometric tension was measured by connecting a left auricle of heart and a transducer by a yarn. […]
result_type: activation at 10 µg/mL (%)
Please state the figure in %; there is no need to write the unit.

CC1CC(c2ccc(Nc3ccncc3)cc2)=NNC1=O (stereo not shown) : 85.9
O=C1CCC(c2ccc(Nc3ncccn3)cc2)=NN1 : 42
CC1CC(=O)NN=C1c1ccc(Nc2ccncc2)cc1 (stereo not shown) : 86.6

Next up:
Query :: Data request, read-out activation at 10 µg/mL, for O=C1CCC(c2ccc(Nc3ccncc3)cc2)=NN1
Result :: 115
